Target: T1, human GPC3-his tag protein (human, UniProt P51654 25-559, limits assumed)
T1 construct: recombinant soluble antigen used as analyte in all Biacore runs; also called recombinant GPC3 protein; rhGPC3-His; not shown: His tag
Test: SPR Biacore 8K, mAb captured, affinity ranking
outcome measure: kon (M⁻¹ s⁻¹)
Value expressed in M⁻¹ s⁻¹; do not type the unit.

Sample records with kon:
binder | kon [M⁻¹ s⁻¹]
52H5D3B8-6#-VH1+VL1 (antibody, V domains shown, humanized) VH: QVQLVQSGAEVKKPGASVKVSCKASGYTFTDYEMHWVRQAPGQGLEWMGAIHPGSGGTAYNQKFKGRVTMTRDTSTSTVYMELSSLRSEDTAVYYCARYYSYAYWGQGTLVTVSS VL: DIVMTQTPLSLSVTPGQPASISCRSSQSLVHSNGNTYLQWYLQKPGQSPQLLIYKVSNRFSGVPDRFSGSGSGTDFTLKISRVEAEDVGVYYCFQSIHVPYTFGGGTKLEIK | 567000
52H5D3B8-6#-VH4+VL4 (antibody, V domains shown, humanized) VH: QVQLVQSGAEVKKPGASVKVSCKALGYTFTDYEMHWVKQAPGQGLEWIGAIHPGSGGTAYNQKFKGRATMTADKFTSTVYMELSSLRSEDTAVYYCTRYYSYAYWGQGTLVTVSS VL: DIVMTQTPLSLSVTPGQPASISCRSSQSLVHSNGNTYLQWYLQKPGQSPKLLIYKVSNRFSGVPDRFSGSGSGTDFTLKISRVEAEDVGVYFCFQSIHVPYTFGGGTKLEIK | 692000

Okay, next one:
Query: // query kon value for entry 52H5D3B8-6#-VH4+VL1 (antibody, V domains shown, humanized) VH: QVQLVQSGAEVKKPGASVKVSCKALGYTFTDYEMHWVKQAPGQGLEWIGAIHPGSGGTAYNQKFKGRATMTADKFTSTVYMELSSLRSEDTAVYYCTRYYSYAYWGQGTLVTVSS VL: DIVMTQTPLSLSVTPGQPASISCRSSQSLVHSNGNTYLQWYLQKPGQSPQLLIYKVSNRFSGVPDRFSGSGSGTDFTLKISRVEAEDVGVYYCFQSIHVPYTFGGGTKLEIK
Result: 643000

Hello, the source for this data is patent US20240409663A1, in case you need it.
